Test system: BT20 Cell
Experiment: Cancer Cell Lysate Total L-Glutamate Assay
Assay type: cell-based
Conditions: Homo sapiens, BT-20, 2 h, total L-glutamate in cell lysate, BT20 cells, 2 hour incubation with test compound
Form field: IC50 (one value per entry).

compound: C[C@H](c1nnc(NC(=O)Cc2ccccn2)s1)[C@H]1C[C@@H](c2nnc(NC(=O)Cc3ccccn3)s2)C1 (single isomer, unassigned)
reportedValue: 2 nM
--
compound: CCC(=O)Nc1nnc([C@H]2C[C@H](Cc3nnc(NC(=O)Cc4ccccn4)s3)C2)s1 (single isomer, unassigned)
reportedValue: 13.7 nM

Noted for Nc1nnc(C[C@H]2CC[C@@H](c3nnc(N)s3)C2)s1 (single isomer, unassigned) : its IC50 reads > 40400 nM

Noted for CC(=O)Nc1nnc([C@@H]2CC[C@H](Cc3nnc(NC(=O)Cc4cscn4)s3)C2)s1 (racemic) : its IC50 reads 7.1 nM

Noted for CC(=O)Nc1nnc([C@H]2CC[C@@H](Cc3nnc(NC(=O)Cc4cncnc4)s3)C2)s1 (single isomer, unassigned) : its IC50 reads 64.5 nM

Noted for O=C(Cc1ccccc1)Nc1nnc(C[C@@H]2CC[C@H](c3nnc(NC(=O)Cc4ccccc4)s3)C2)s1 (single isomer, unassigned) : its IC50 reads 1.4 nM

###

System: BT20 Cell
Test: Cancer Cell Lysate Total L-Glutamate Assay
Type: cell-based
Settings: Homo sapiens, BT-20, 2 h, total L-glutamate in cell lysate, BT20 cells, 2 hour incubation with test compound
quantityMeasured: IC50

Below: 2 compounds and their reported IC50.
compound: O=C(Cc1ccccc1)Nc1nnc(C[C@H]2CC[C@@H](c3nnc(NC(=O)Cc4ccccc4)s3)C2)s1 (single isomer, unassigned) [Example 10]
reportedValue: 33.3 nM
--
compound: O=C(Cc1ccccn1)Nc1nnc(C2CCC(c3nnc(NC(=O)Cc4ccccn4)s3)CC2)s1 (racemic) [Example 140]
reportedValue: 380 nM

Noted for CC(C)C(=O)Nc1ccc(CC2CCC(c3nnc(NC(=O)Cc4ccccn4)s3)C2)nn1 (racemic) [Example 76] : its IC50 reads 3 nM

Noted for O=C(Cc1ccccn1)Nc1nnc(CC2CCC(c3nnc(Nc4ncccn4)s3)C2)s1 (racemic) [Example 83] : its IC50 reads 2.4 nM

Noted for CC(=O)Nc1nnc(C[C@H]2CC[C@@H](c3nnc(NC(=O)Cc4ccccc4)s3)C2)s1 (single isomer, unassigned) [Example 45] : its IC50 reads 295 nM

Noted for O=C(Cc1ccccn1)Nc1nnc(CC2CCC(c3nnc(Nc4cnccn4)s3)C2)s1 (racemic) [Example 87] : its IC50 reads 7.5 nM

Noted for O=C(Cc1ccccn1)Nc1ccc(C2CCC(Cc3nnc(NC(=O)Cc4ccccn4)s3)C2)nn1 (racemic) [Example 26] : its IC50 reads 1.3 nM

###

System: BT20 Cell
Test: Cancer Cell Lysate Total L-Glutamate Assay
Assay type: cell-based
Conditions: Homo sapiens, BT-20, 2 h, total L-glutamate in cell lysate, BT20 cells, 2 hour incubation with test compound
quantityMeasured: pIC50
In plain terms, pIC50 is the concentration in mol/L turned into minus its base-10 logarithm.

Below: 3 compounds and their reported pIC50.
compound: C[C@@H](c1nnc(NC(=O)Cc2ccccn2)s1)[C@H]1C[C@@H](c2nnc(NC(=O)Cc3ccccn3)s2)C1 (single isomer, unassigned) [Example 103]
pIC50: 9.10
//
compound: CC(=O)Nc1nnc(C[C@@H]2CC[C@H](c3nnc(NC(C)=O)s3)C2)s1 (single isomer, unassigned) [Example 5]
pIC50: 6.98
//
compound: Cn1ccc(C(=O)Nc2nnc(C[C@H]3CC[C@@H](c4nnc(NC(=O)Cc5ccccn5)s4)C3)s2)n1 (racemic) [Example 137]
pIC50: 8.36

Turning now to a further compound:
Noted for O=C(Cc1ccccn1)Nc1ccc(C[C@H]2CC[C@@H](c3nnc(NC(=O)c4ccccn4)s3)C2)nn1 (single isomer, unassigned) [Example 116] : its pIC50 reads 8.23
